# PROTOCOL: TOX21_p53_BLA_p3_viability: Viability Assessment in the Tox21 HCT-116 p53 Agonism Beta-lactamase Assay, Phase 3 (AID 2283593);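 further: cells exposed to compound for 16 h before reading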
Records with an inconclusive call do not appear. Calls of active or inactive are those of the source. How the source made its calls: active means hit-call score of the fitted dose curve at least 0.9, where 1 is the maximum; inconclusive means response in the unintended direction; inactive means score below 0.9.
MEASURED_ENDPOINT: outcome

Record excerpt, results attached:
> print(dat)
                                    compound  reported.value
 1  CC(C)Cc1ccc(C(C)C(=O)O)cc1 (stereo not given)        inactive
 2                                CCCCCCCCCO        inactive
 3      O=S(=O)(O)c1cc(O)c(O)c(S(=O)(=O)O)c1        inactive
 4                       CCO[Si](CC)(OCC)OCC        inactive
 5        CCCCOCCOC(=O)c1ccccc1C(=O)OCCOCCCC        inactive
 6                       C=C(C)C(=O)OCCN(C)C        inactive
 7     C=C1CC/C=C(\C)CC[C@@H]2[C@@H]1CC2(C)C        inactive
 8          CC(O)CNCC(C)O (stereo not given)        inactive
 9                      CCOc1ccc(NC(C)=O)cc1        inactive
10                        CC1=CCC(=C(C)C)CC1        inactive

Please give the measured outcome for this compound: CC(C)CCOC(=O)CC(C)C
inactive

Given the entry O=C(OCc1ccccc1)c1ccccc1O , report its measured outcome.
inactive

If you can, please state the reported outcome value of c1coc(CNc2ncnc3nc[nH]c23)c1 .
inactive

Sample CCCCN(CCCC)CCCCCCN(CCCC)CCCC — what was its outcome?
inactive

# input compound: CC1=CC[C@@H]2C[C@H]1C2(C)C ; wanted: its outcome
inactive
